# targetUnderTest: T1, human GITR expressed on cells (human, UniProt Q9Y5U5 26-241)
# T1 construct: whole, on cells; Used for HEK293 transfectants and for PHA-stimulated human PBMCs; also called hGITR; cell surface hGITR
# T1 sequence (looked up): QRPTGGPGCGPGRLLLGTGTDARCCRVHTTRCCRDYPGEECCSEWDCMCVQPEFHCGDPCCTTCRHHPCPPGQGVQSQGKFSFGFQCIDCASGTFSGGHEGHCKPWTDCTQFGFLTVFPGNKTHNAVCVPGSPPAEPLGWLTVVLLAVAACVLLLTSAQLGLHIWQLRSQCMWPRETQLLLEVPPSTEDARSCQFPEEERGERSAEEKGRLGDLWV
# testDescription: Meso Scale assay, Sulfo-conjugated antibody on coated HEK293-Trex-hGITR cells
Give Kd for every item shown.
Give the quantity in nM, number only.

### Prompt Quick one: Kd for anti-GITR antibody clone 698 (antibody, V domains shown, Murine hybridoma antibody; also called 698-GITR2; 698 GITR-2) VH: EVQLQQSGTVLARPGASVKMSCEASGYSFTTYWMHWIKQRPGQGLEWIGAIYPGNSDTGYNQKFKGKAKLTAVTSATTAYMELSSLTDEDSAVYYCTRTSTYPHFDYWGQGTTLTVSS VL: DILLTQSPAILSVSPGERVSFSCRASQSIGTSIHWYQQRTNGSPRLLIKYASESISGIPSRFSGSGSGTDFTLNINSVESEDIADYYCQQSNNWPLTFGAGTKLELK ?
### Response 6.8

### Prompt Quick one: Kd for anti-GITR antibody clone 706 (antibody, V domains shown, Murine hybridoma antibody; also called 706-GITR2; 706 GITR-2) VH: EVQLQQSGTVLARPGASVKMSCEASGYSFTTYWMHWIKQRPGQGLEWIGAIYPGNSDTGYNQKFKGKAKLTAVTSASTAYMELSSLTNEDSAVYYCTRTSTYPHFDYWGQGTTLTVSS VL: DILLTQSPAILSVSPGERVSFSCRASQSIGTSIHWYQQRTNGSPRLLIKYASESISGIPSRFSGSGSGTDFTLNINSVESEDIADYYCQQTNNWPLTFGAGTKLELK ?
### Response 7.24

### Prompt Quick one: Kd for anti-GITR antibody clone 1718 (antibody, V domains shown, Murine hybridoma antibody; also called 1718-GITR2; 1718 GITR-2) VH: QVQVQQSGPELVKPGASVRISCKASDYTFTNYYIHWVRQRPGQGLEWLGWIYPGKGYTNYNEKFKGKATLTADKSSSTAYMQFSSLTSEDSAVYFCASGYGNYYFPYWGQGTLVTVSA VL: IQMTQSSSYLSVSLGGRVTITCKASDHIKNWLAWYQQKPGNVPRLLMSAATSLETGFPSRFSGSGSGKDFTLTITSLQTEDVATYYCQQYWSTPWTFGGGTKLEIK ?
### Response 0.857
